Reference for the values: patent US20040022850A1

test: Solubility of the model drugs; format: physicochemical
valueKind: solubility (µg/mL)
Kindly provide the numeric value in µg/mL only, without the unit symbol.

Input: Reported solubility for "CCCCOC(=O)c1ccc(O)cc1" : what is it?
Output: 200
